- Experimental Protocol: Clinical trial APD356-016: plasma and urine pharmacokinetics of lorcaserin, M1 and M5 after a 10 mg dose in subjects with renal impairment
- Condition Notes: human, plasma, 10 mg, AUC24 hr, ESRD; 10 mg QD Authentic; Day 1
Experimental Readout: AUC(0-t) (ng·h/mL)
Report as a plain number; the unit ng·h/mL is understood.

What value of measured AUC(0-t) is listed for `C[C@H]1CNCCc2ccc(Cl)cc21` ?
618

====

- Experimental Protocol: Clinical trial APD356-016: plasma and urine pharmacokinetics of lorcaserin, M1 and M5 after a 10 mg dose in subjects with renal impairment
- Condition Notes: human, plasma, oral, 10 mg, AUC0-t, 10 mg dose; Severe; ideal BW groups
Experimental Readout: AUC(0-t)

What value of measured AUC(0-t) is listed for C[C@H]1CNCCc2ccc(Cl)cc21 [Lorcaserin] ?
469 ng·h/mL

====

- Experimental Protocol: Clinical trial APD356-016: plasma and urine pharmacokinetics of lorcaserin, M1 and M5 after a 10 mg dose in subjects with renal impairment
- Condition Notes: human, plasma and urine, oral, 10 mg, ClR/F, 10 mg dose; Moderate; actual BW groups
Experimental Readout: CL renal (mL/min)
Report as a plain number; the unit mL/min is understood.

What value of measured CL renal is listed for `C[C@H]1CNCCc2ccc(Cl)cc21` ?
11.1

====

- Experimental Protocol: Clinical trial APD356-016: plasma and urine pharmacokinetics of lorcaserin, M1 and M5 after a 10 mg dose in subjects with renal impairment
- Condition Notes: human, plasma, oral, 10 mg, Cmax, 10 mg dose; Moderate; actual BW groups
Experimental Readout: Cmax (ng/mL)
Report as a plain number; the unit ng/mL is understood.

What value of measured Cmax is listed for C[C@H]1CNCCc2ccc(Cl)cc21 [Lorcaserin] ?
27.6

====

- Experimental Protocol: Clinical trial APD356-016: plasma and urine pharmacokinetics of lorcaserin, M1 and M5 after a 10 mg dose in subjects with renal impairment
- Condition Notes: human, plasma, oral, 10 mg, MRTinf, 10 mg dose; Moderate; ideal BW groups
Experimental Readout: MRT inf (h)
Report as a plain number; the unit h is understood.

What value of measured MRT inf is listed for `C[C@H]1CNCCc2ccc(Cl)cc21` ?
21.1

====

- Experimental Protocol: Clinical trial APD356-016: plasma and urine pharmacokinetics of lorcaserin, M1 and M5 after a 10 mg dose in subjects with renal impairment
- Condition Notes: human, plasma, oral, 10 mg, Vz/F, 10 mg dose; Moderate; ideal BW groups
Experimental Readout: Vd/F (L)
Report as a plain number; the unit L is understood.

What value of measured Vd/F is listed for C[C@H]1CNCCc2ccc(Cl)cc21 [Lorcaserin] ?
399

====

- Experimental Protocol: Clinical trial APD356-016: plasma and urine pharmacokinetics of lorcaserin, M1 and M5 after a 10 mg dose in subjects with renal impairment
- Condition Notes: human, plasma, 10 mg, AUC24 hr, Severe; 10 mg QD Authentic; Day 1
Experimental Readout: AUC(0-t) (ng·h/mL)
Report as a plain number; the unit ng·h/mL is understood.

What value of measured AUC(0-t) is listed for C[C@H]1CNCCc2ccc(Cl)cc21 [Lorcaserin] ?
469

====

- Experimental Protocol: Clinical trial APD356-016: plasma and urine pharmacokinetics of lorcaserin, M1 and M5 after a 10 mg dose in subjects with renal impairment
- Condition Notes: human, plasma, oral, 10 mg, MRTinf, 10 mg dose; Moderate; actual BW groups
Experimental Readout: MRT inf (h)
Report as a plain number; the unit h is understood.

What value of measured MRT inf is listed for C[C@H]1CNCCc2ccc(Cl)cc21 [Lorcaserin] ?
20.8

====

- Experimental Protocol: Clinical trial APD356-016: plasma and urine pharmacokinetics of lorcaserin, M1 and M5 after a 10 mg dose in subjects with renal impairment
- Condition Notes: human, plasma, 10 mg, Cmax, ESRD; 10 mg QD Authentic; Day 1
Experimental Readout: Cmax (ng/mL)
Report as a plain number; the unit ng/mL is understood.

What value of measured Cmax is listed for `C[C@H]1CNCCc2ccc(Cl)cc21` ?
27.2

====

- Experimental Protocol: Clinical trial APD356-016: plasma and urine pharmacokinetics of lorcaserin, M1 and M5 after a 10 mg dose in subjects with renal impairment
- Condition Notes: human, plasma, oral, 10 mg, AUC0-t, 10 mg dose; Normal; actual BW groups
Experimental Readout: AUC(0-t)
Include the unit right after the number.

What value of measured AUC(0-t) is listed for `C[C@H]1CNCCc2ccc(Cl)cc21` ?
549 ng·h/mL

====

- Experimental Protocol: Clinical trial APD356-016: plasma and urine pharmacokinetics of lorcaserin, M1 and M5 after a 10 mg dose in subjects with renal impairment
- Condition Notes: human, plasma, 10 mg, Cmax, Severe; 10 mg QD Authentic; Day 1
- Method: The interaction of renal insufficiency with the pharmacokinetics, tolerability and safety of lorcaserin were evaluated in a formal PK study in subjects with renal impairment and in the populations studied in phase 2 and phase 3 clinical studies. The pharmacokinetic properties of lorcaserin in subjects with varying degrees of renal impairment were evaluated in clinical trial APD356-016. […]
Experimental Readout: Cmax

What value of measured Cmax is listed for `C[C@H]1CNCCc2ccc(Cl)cc21` ?
26.4 ng/mL

====

- Experimental Protocol: Clinical trial APD356-016: plasma and urine pharmacokinetics of lorcaserin, M1 and M5 after a 10 mg dose in subjects with renal impairment
- Condition Notes: human, plasma, oral, 10 mg, Cmax, 10 mg dose; Mild; ideal BW groups
Experimental Readout: Cmax (ng/mL)
Report as a plain number; the unit ng/mL is understood.

What value of measured Cmax is listed for `C[C@H]1CNCCc2ccc(Cl)cc21` ?
36.3

====

- Experimental Protocol: Clinical trial APD356-016: plasma and urine pharmacokinetics of lorcaserin, M1 and M5 after a 10 mg dose in subjects with renal impairment
- Condition Notes: human, plasma, oral, 10 mg, Cmax, 10 mg dose; Severe N = 1; actual BW groups
Experimental Readout: Cmax (ng/mL)
Report as a plain number; the unit ng/mL is understood.

What value of measured Cmax is listed for `C[C@H]1CNCCc2ccc(Cl)cc21` ?
16.4

====

- Experimental Protocol: Clinical trial APD356-016: plasma and urine pharmacokinetics of lorcaserin, M1 and M5 after a 10 mg dose in subjects with renal impairment
- Condition Notes: human, plasma, oral, 10 mg, Vz/F, 10 mg dose; Mild; actual BW groups
- Protocol: The interaction of renal insufficiency with the pharmacokinetics, tolerability and safety of lorcaserin were evaluated in a formal PK study in subjects with renal impairment and in the populations studied in phase 2 and phase 3 clinical studies. The pharmacokinetic properties of lorcaserin in subjects with varying degrees of renal impairment were evaluated in clinical trial APD356-016. […]
Experimental Readout: Vd/F (L)
Report as a plain number; the unit L is understood.

What value of measured Vd/F is listed for `C[C@H]1CNCCc2ccc(Cl)cc21` ?
361

====

- Experimental Protocol: Toxicity studies in monkeys (single dose, 28-day, 13-week, 12-month)
- Type: in vivo, cynomolgus monkeys
- Condition Notes: cynomolgus monkey, in vivo, oral; monkeys; repeat dose studies; read-out: Maximum tolerated dose
Experimental Readout: MTD

What value of measured MTD is listed for `C[C@H]1CNCCc2ccc(Cl)cc21` ?
100 to 125 mg/kg/day
